The compounds listed here are annotated with their IC50 ug/ml HCMV.
# System: HCMV recombinant mutant virus (RV145)
# Assay Details: microbe, parasite or virus in culture
# Format: cell-based, human cytomegalovirus
# Condition Summary: HCMV
# Procedure: Microtiter plate assay. […] At 96 hours post-infection, the infected cell lysates are prepared (using 50 mM sodium phosphate [pH7.0]containing 0.1% Triton X-100 and 0.1% sarkosyl) and assayed for beta-glucuronidase activity using a substrate for the enzyme which when cleaved yields either a product which can be measured […] in a spectrophotometer or fluorescently in a microfluorimeter. […]

Consider the worked cases shown below.
Compound	Study Target	IC50 ug/ml HCMV
COc1cc(OC)c(NC(=S)Nc2ccc(NC(=O)c3c(F)c(F)c(F)c(F)c3F)cc2)cc1Cl	HCMV recombinant mutant virus (RV145)	>10 µg/mL
O=C(Nc1ccc(NC(=S)Nc2ccc(Cl)c(C(F)(F)F)c2)cc1)c1c(F)cccc1F	HCMV recombinant mutant virus (RV145)	>10 µg/mL

Report IC50 ug/ml HCMV for CC(NC(=S)Nc1ccc(NC(=O)c2ccc(Cl)cc2)cc1)c1ccc(F)cc1 (stereo not drawn) please.
>10 µg/mL

###

# Test system: HCMV recombinant mutant virus (RV145)
# Assay Details: microbe, parasite or virus in culture
# Assay type: cell-based, human cytomegalovirus
# Condition Summary: HCMV
Measured IC50 ug/ml HCMV, listed per entry.

Compound	Test Result
COc1cccc(C(=O)Nc2ccc(NC(=S)NC(C)c3ccc(F)cc3)cc2)c1 (stereo not drawn)	>0.5 µg/mL

Give the measured IC50 ug/ml HCMV of NNC(=O)c1cccc(NC(=S)Nc2ccc(NC(=O)c3ccccc3F)cc2)c1 .
>10 µg/mL

Entry COc1cc(OC)c(NC(=S)Nc2ccc(NC(=O)c3cccc(OCC(=O)O)c3)cc2)cc1Cl please
>50 µg/mL

###

Catalogue of IC50 values
# Test system: HCMV recombinant mutant virus (RV145)
# Assay Details: microbe, parasite or virus in culture
# Format: cell-based, human cytomegalovirus
# Condition Summary: Human betaherpesvirus 5, read-out: IC50 ug/ml HCMV, HCMV

Compound	Study Target	IC50
O=C(Nc1ccc(NC(=S)NCCOc2ccc(I)cc2)cc1)c1ccccc1F	HCMV recombinant mutant virus (RV145)	> 3 µg/mL
O=C(Nc1ccc(NC(=S)Nc2ccc(F)c(Cl)c2)cc1)c1ccccc1F	HCMV recombinant mutant virus (RV145)	> 10 µg/mL
CC(NC(=S)Nc1ccc(NC(=O)c2ccccc2F)cc1)c1ccc(F)cc1 (stereo not shown)	HCMV recombinant mutant virus (RV145)	7 µg/mL
Cc1ccc(NC(=S)Nc2ccc(NC(=O)c3ccccc3F)cc2)cc1C(F)(F)F	HCMV recombinant mutant virus (RV145)	> 10 µg/mL

Field request: IC50 | item: NC(=O)c1cccc(NC(=S)Nc2ccc(NC(=O)c3ccccc3F)cc2)c1
> 10 µg/mL

Would you mind doing CC(C)COc1ccc(NC(=S)Nc2ccc(NC(=O)c3ccccc3F)cc2)cc1Cl as well?
> 10 µg/mL

Now try Nc1ccc(F)cc1NC(=S)Nc1ccc(NC(=O)c2ccccc2F)cc1 .
> 10 µg/mL

Then what about the compound COC(=O)c1cccc(NC(=S)Nc2ccc(NC(=O)c3ccccc3F)cc2)c1 ?
> 10 µg/mL

Same lookup for CC(NC(=S)Nc1ccc(NC(=O)c2cccc(F)c2)cc1)c1ccc(F)cc1 (stereo not shown) , please.
> 10 µg/mL

Another compound to look at: CC(NC(=S)Nc1ccc(NC(=O)c2ccccc2)cc1)c1ccc(F)cc1 (stereo not shown)
> 10 µg/mL

###

# Tested on: VZV strain Ellen
# Assay Details: VZV Antiviral (ELISA) Assay in human foreskin fibroblast cells
# Type: cell-based, varicella-zoster virus
# Condition Summary: Human alphaherpesvirus 3, Fibroblast, read-out: IC50 (ug/ml) VZV
Measurement Label: IC50

Completed entries (count: 4):
Molecule	IC50
CC(NC(=S)Nc1ccc(NC(=O)c2ccccc2F)cc1)c1cccc(C(F)(F)F)c1 (stereo not drawn)	> 7.5 µg/mL
CC(NC(=S)Nc1ccc(NC(=O)c2ccccc2F)cc1)c1ccccc1C(F)(F)F (stereo not drawn)	> 7.5 µg/mL
CC(NC(=S)Nc1ccc(NC(=O)c2ccccc2C(F)(F)F)cc1)c1cc2ccccc2o1 (stereo not drawn)	> 7.5 µg/mL
O=C(Nc1ccc(NC(=S)Nc2cccc([N+](=O)[O-])c2)cc1)c1ccccc1F	> 10 µg/mL

Can you look up the measured IC50 of O=C(Nc1ccc(NC(=S)Nc2ccccc2)cc1)c1ccccc1F for me?
> 10 µg/mL

Subsequent entry: CC(=O)c1cccc(NC(=S)Nc2ccc(NC(=O)c3ccccc3F)cc2)c1
> 10 µg/mL

Record: O=C(Nc1ccc(NC(=S)Nc2cccc(S(=O)(=O)CCO)c2)cc1)c1ccccc1F
> 10 µg/mL

Again, but for CC(NC(=S)Nc1ccc(NC(=O)c2ccccc2F)cc1)c1ccc(C(F)(F)F)cc1F (stereo not drawn)
> 7.5 µg/mL

Here is the next molecule: CC(NC(=S)Nc1ccc(NC(=O)c2ccccc2F)cc1)c1ccc(S(=O)(=O)N(C)C)cc1 (stereo not drawn)
> 10 µg/mL

###

# Tested on: HCMV recombinant mutant virus (RV145)
# Assay Details: microbe, parasite or virus in culture
# Format: cell-based, human cytomegalovirus
# Condition Summary: Human betaherpesvirus 5, read-out: IC50 ug/ml HCMV, HCMV
Items are presented alongside their recorded IC50.

Given the entry CC(NC(=S)Nc1ccc(NC(=O)c2cc3ccccc3o2)cc1)c1cc2ccccc2o1 (stereo not shown) [Example 981] , what IC50 was observed with HCMV recombinant mutant virus (RV145)?
> 10 µg/mL

// query: CN(C)c1cc(NC(=S)Nc2ccc(NC(=O)c3ccccc3F)cc2)cc(C(F)(F)F)c1 [Example 567]
> 0.5 µg/mL

Request: COc1ccccc1C(=O)Nc1ccc(NC(=S)NC(C)c2ccc(Br)cc2)cc1 (stereo not shown) [Example 1019]
2.6 µg/mL

Please do the same for O=C(Nc1ccc(NC(=S)Nc2ccccc2)cc1)c1ccccc1F [Example 859] as well.
> 10 µg/mL

###

# Tested on: VZV strain Ellen
# Assay Details: VZV Antiviral (ELISA) Assay in human foreskin fibroblast cells
# Type: cell-based, varicella-zoster virus
# Condition Summary: Human alphaherpesvirus 3, Fibroblast, read-out: IC50 (ug/ml) VZV
Measurement Label: IC50 (µg/mL)
Express it in µg/mL; write the number only.

Compound	Unit Abbrev	IC50
CN(c1ccc(NC(=S)Nc2ccc(NC(=O)c3ccccc3F)cc2)cc1Cl)C1CCN(Cc2ccccc2)C1 (stereo not drawn)	µg/mL	7
C[C@H](NC(=S)Nc1ccc(NC(=O)c2nccc3ccccc23)cc1)c1ccc(Cl)cc1	µg/mL	0.03
CC(NC(=S)Nc1ccc(NC(=O)c2ccc(C#N)cc2)cc1)c1ccc(F)cc1 (stereo not drawn)	µg/mL	1.5

Give its IC50 value. Item: COc1ccccc1C(=O)Nc1ccc(NC(=S)NC(C)c2ccc(Br)cc2)cc1 (stereo not drawn)
0.05

Please give the result for CC(NC(=S)Nc1ccc(NC(=O)c2cc3ccccc3o2)cc1)c1ccc(Br)cc1 (stereo not drawn) too.
0.1

And the next one, CC(NC(=S)Nc1ccc(NC(=O)c2cccc3cccnc23)cc1)c1ccc(F)cc1 (stereo not drawn) ?
0.1

Consider next the compound CC(NC(=S)Nc1ccc(NC(=O)c2ccnc3ccccc23)cc1)c1ccc(F)cc1 (stereo not drawn) in the same way.
3

Would you kindly repeat that for CC(NC(=S)Nc1ccc(NC(=O)c2ccccc2C#N)cc1)c1ccc(F)cc1 (stereo not drawn) ?
2.7

###

# System: HCMV recombinant mutant virus (RV145)
# Assay Details: microbe, parasite or virus in culture
# Type: cell-based, human cytomegalovirus
# Condition Summary: Human betaherpesvirus 5, read-out: IC50 ug/ml HCMV, HCMV
Listing of recorded IC50 by entry.

Worked examples follow.
Compound	IC50
CC(=O)c1cccc(NC(=S)Nc2ccc(NC(=O)c3ccccc3F)cc2)c1 [Example 965]	> 10 µg/mL
CC(NC(=S)Nc1ccc(NC(=O)c2cnc3ccccc3c2)cc1)c1ccc(F)cc1 (stereo not drawn) [Example 988]	> 10 µg/mL
O=C(Nc1ccc(NC(=S)NCc2cc(C(F)(F)F)ccc2F)cc1)c1ccccc1F [Example 669]	> 0.5 µg/mL

Which IC50 value belongs to CC(NC(=S)Nc1ccc(C(=O)Nc2ccc(F)cc2)cc1)c1ccc(F)cc1 (stereo not drawn) [Example 975] ?
> 10 µg/mL

Proceed to O=C(Nc1ccc(NC(=S)Nc2ccc(Cl)cc2O)cc1)c1ccccc1F [Example 1001]
2.6 µg/mL

###

# Tested on: HCMV recombinant mutant virus (RV145)
# Assay Details: microbe, parasite or virus in culture
# Format: cell-based, human cytomegalovirus
# Condition Summary: HCMV
Measurement Label: IC50 ug/ml HCMV (µg/mL)
Value expressed in µg/mL; do not type the unit.

Compound	IC50 ug/ml HCMV / µg/mL
CS(=O)(=O)c1ccc(NC(=S)Nc2ccc(NC(=O)c3c(F)cccc3F)cc2)cc1Cl [Example 392]	0.5

IC50 ug/ml HCMV lookup needed for CC(C)c1cccc(NC(=S)Nc2ccc(NC(=O)c3ccccc3F)cc2)c1 [Example 452] , thanks.
2

Ok, now COc1ccc(C(C)NC(=S)Nc2ccc(NC(=O)c3ccccc3F)cc2)cc1 (stereo not drawn) [Example 777]
1.7

Entry to check: Cc1cccc(C(C)NC(=S)Nc2ccc(NC(=O)c3ccccc3F)cc2)c1 (stereo not drawn) [Example 776]
0.9

Lookup COc1cc(OC)c(NC(=S)Nc2ccc(NC(=O)c3cccc(OC(F)(F)F)c3)cc2)cc1Cl [Example 256]
9

Further, for COc1cc(OC)c(NC(=S)Nc2ccc(NC(=O)c3ccccc3F)cc2)cc1Cl [Example 118] ?
3
